Taken from the supplement of paper PMC9112550.

System: Escherichia coli TOP10;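 further: peptides expressed intracellularly from a pBAD plasmid library in pooled LB shake-flask culture, induced with 0.3% L-arabinose, DNA abundance read by NGS, three biological replicates, DESeq2 with apeglm shrinkage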
assay-text: shrunken log2 fold change of peptide-encoding DNA abundance (4.5 h post-induction vs induction); higher = less antimicrobial activity (less host growth inhibition)
measurement-context: time post-induction: 4.5 h; library: site-saturation at positions 5, 18, 19, 20
A collection of sequences and their measured shrunken log2 fold change

Answered cases to consult:
{"residues": "RRIRARPPRLPRPRPRPSQNPRP", "shrunken log2 fold change": -0.25}
{"residues": "RRIRNRPPRLPRPRPRPLHNPRP", "shrunken log2 fold change": -0.503}
{"residues": "RRIRARPPRLPRPRPRPGHYPRP", "shrunken log2 fold change": 0.186}
{"residues": "RRIRWRPPRLPRPRPRPWTHPRP", "shrunken log2 fold change": -0.11}
{"residues": "RRIRKRPPRLPRPRPRPFWSPRP", "shrunken log2 fold change": -0.00917}
{"residues": "RRIRNRPPRLPRPRPRPLYTPRP", "shrunken log2 fold change": -0.269}

Turning now to a further sequence:
# input For RRIRDRPPRLPRPRPRPMRLPRP , write its shrunken log2 fold change.
# output 0.674
